system: HCI01 (cells of a triple-negative basal-like breast cancer xenograft); test: cell viability of combination (% of vehicle); higher = less cytotoxic; settings: 1 µM; 72 h; partner dose: 10 nM
Counter-ions that a name gives are not always drawn.
Could you please report measured cell viability of combination for the items listed next?
No unit in the answer, only the number.

Input line: Record lookup: for HCI01, what cell viability of combination belongs to Br.Cc1ccc(Sc2ccccc2N2CCNCC2)c(C)c1 + CC(C)C[C@H](NC(=O)[C@H](CCc1ccccc1)NC(=O)CN1CCOCC1)C(=O)N[C@@H](Cc1ccccc1)C(=O)N[C@@H](CC(C)C)C(=O)[C@@]1(C)CO1 ?
Output line: 98.3

Input line: Record lookup: for HCI01, what cell viability of combination belongs to CCOc1cc2ncc(C#N)c(Nc3ccc(OCc4ccccn4)c(Cl)c3)c2cc1NC(=O)C=CCN(C)C [Neratinib (HKI-272)] + CC(C)C[C@H](NC(=O)[C@H](CCc1ccccc1)NC(=O)CN1CCOCC1)C(=O)N[C@@H](Cc1ccccc1)C(=O)N[C@@H](CC(C)C)C(=O)[C@@]1(C)CO1 ?
Output line: 87.8

Input line: Record lookup: for HCI01, what cell viability of combination belongs to CO[C@H]1C[C@@H]2CC[C@@H](C)[C@@](O)(O2)C(=O)C(=O)N2CCCC[C@H]2C(=O)O[C@H]([C@H](C)C[C@@H]2CC[C@@H](O)[C@H](OC)C2)CC(=O)[C@H](C)/C=C(\C)[C@@H](O)[C@@H](OC)C(=O)[C@H](C)C[C@H](C)/C=C/C=C/C=C/1C [Rapamycin (Sirolimus)] + CC(C)C[C@H](NC(=O)[C@H](CCc1ccccc1)NC(=O)CN1CCOCC1)C(=O)N[C@@H](Cc1ccccc1)C(=O)N[C@@H](CC(C)C)C(=O)[C@@]1(C)CO1 ?
Output line: 68.3

Input line: Record lookup: for HCI01, what cell viability of combination belongs to COc1nc2ccc(Br)cc2cc1[C@@H](c1ccccc1)[C@@](O)(CCN(C)C)c1cccc2ccccc12 [Bedaquiline fumarate] + CC(C)C[C@H](NC(=O)[C@H](CCc1ccccc1)NC(=O)CN1CCOCC1)C(=O)N[C@@H](Cc1ccccc1)C(=O)N[C@@H](CC(C)C)C(=O)[C@@]1(C)CO1 ?
Output line: 77.1

----------
Could you please report measured cell viability for the items listed next?
system: HCI01; assay: cell viability (% of vehicle); higher = less cytotoxic; settings: 10 µM; 72 h
No unit in the answer, only the number.

Input line: // query cell viability value for entry CC(C)OC(=O)OCOP(=O)(COC(C)Cn1cnc2c(N)ncnc21)OCOC(=O)OC(C)C.O=C(O)C=CC(=O)O (stereo not drawn) [Tenofovir Disoproxil Fumarate]
Output line: 106

Input line: // query cell viability value for entry CN(N=O)C(=O)NC1C(O)OC(CO)C(O)C1O (stereo not drawn)
Output line: 105

Input line: // query cell viability value for entry O=C(O)[C@H](O)[C@@H](O)C(=O)O.c1cnc2cc3c(cc2n1)C1CNC[C@@H]3C1 [Varenicline Tartrate]
Output line: 169

----------
tested on: HCI16 (cells of a triple-negative basal-like breast cancer xenograft); assay: cell viability (% of vehicle); higher = less cytotoxic; conditions: 10 µM; 72 h
Could you please report measured cell viability for the items listed next?
No unit in the answer, only the number.

Input line: Record lookup: for HCI16, what cell viability belongs to COc1cc(C2c3cc4c(cc3C(OC3OC5COC(c6cccs6)OC5C(O)C3O)C3COC(=O)C23)OCO4)cc(OC)c1O (centres undefined) [Teniposide] ?
Output line: 118

Input line: Record lookup: for HCI16, what cell viability belongs to O=c1nc[nH]c2c1ncn2C1CCC(CO)O1 (centres undefined) [Didanosine] ?
Output line: 90.8

Input line: Record lookup: for HCI16, what cell viability belongs to NS(=O)(=O)c1cc2c(cc1Cl)NC=NS2(=O)=O [Chlorothiazide] ?
Output line: 90

Input line: Record lookup: for HCI16, what cell viability belongs to COC(=O)C1=C(C)NC(C)=C(C(=O)OC2CCCN(Cc3ccccc3)C2)C1c1cccc([N+](=O)[O-])c1.Cl (centres undefined) [Benidipine HCl] ?
Output line: 87.5

----------
Could you please report measured cell viability for the items listed next?
system: WHIM2 (cells of a triple-negative basal-like breast cancer xenograft); assay: cell viability (% of vehicle); higher = less cytotoxic; details: 1 µM; 72 h;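 note: cells dissociated from PDX tumors propagated in female NSG mouse mammary fat pads, vehicle control 0.1% DMSO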
No unit in the answer, only the number.

Input line: // query cell viability value for entry Cl.O.O=C1Cc2cc(CCN3CCN(c4nsc5ccccc45)CC3)c(Cl)cc2N1 [Ziprasidone hydrochloride monohydrate]
Output line: 94.5

Input line: // query cell viability value for entry CN(C)CC=CC(=O)Nc1cc2c(Nc3ccc(F)c(Cl)c3)ncnc2cc1OC1CCOC1 (configuration not stated) [Afatinib (BIBW2992)]
Output line: 50.9

Input line: // query cell viability value for entry CC(C)CC(NC(=O)C(NC(=O)c1cccc(-c2ccccc2)n1)C(C)O)B(O)O (configuration not stated)
Output line: 132

Input line: // query cell viability value for entry CN(C)c1ccc(C(=C2C=CC(=[N+](C)C)C=C2)c2ccc(N(C)C)cc2)cc1.[Cl-] [Crystal Violet]
Output line: 51.2

Input line: // query cell viability value for entry Clc1ccc(COC(Cn2ccnc2)c2ccc(Cl)cc2Cl)c(Cl)c1.O=[N+]([O-])O (configuration not stated) [Miconazole Nitrate]
Output line: 111

Input line: // query cell viability value for entry Cc1nc(Nc2ncc(C(=O)Nc3c(C)cccc3Cl)s2)cc(N2CCN(CCO)CC2)n1
Output line: 67.7

Input line: // query cell viability value for entry CC(C)Nc1cc(-c2c[nH]c(C(=O)NC(CO)c3cccc(Cl)c3)c2)c(Cl)cn1 (configuration not stated)
Output line: 72.7

----------
system: HCI11 (cells of an ER-positive luminal breast cancer xenograft); test: cell viability (% of vehicle); higher = less cytotoxic; details: 10 µM; 72 h
Please use condition met for cell viability under 80 and condition not met for everything else, ties included.

Input line: Bench note: check whether COc1c(C)c2c(c(O)c1CC=C(C)CCC(=O)O)C(=O)OC2 shows cell viability below 80
Output line: condition met

Input line: Bench note: check whether COc1cc(Nc2ncc3c(n2)-c2ccc(Cl)cc2C(c2c(F)cccc2OC)=NC3)ccc1C(=O)O shows cell viability below 80
Output line: condition not met

Input line: Bench note: check whether CC1(C(=O)[O-])CCC2(C)CCC3(C)C(=CC(=O)C4C5(C)CCC(OC(=O)CCC(=O)[O-])C(C)(C)C5CCC43C)C2C1.[Na+].[Na+] (stereo unspecified) [Carbenoxolone disodium] shows cell viability below 80
Output line: condition not met

Input line: Bench note: check whether CCN(CC)CCOCCOC(=O)C(CC)(CC)c1ccccc1.O=C(O)CC(O)(CC(=O)O)C(=O)O [Oxeladin Citrate] shows cell viability below 80
Output line: condition not met

Input line: Bench note: check whether Cc1cncc(CN2CCC(=C3c4ccc(Cl)cc4CCc4cccnc43)CC2)c1.O=C(O)C=CC(=O)O [Rupatadine Fumarate] shows cell viability below 80
Output line: condition met

----------
Could you please report measured cell viability of combination for the items listed next?
test system: UCD52 (cells of a triple-negative basal-like breast cancer xenograft); assay: cell viability of combination (% of vehicle); higher = less cytotoxic; conditions: 1 µM; 72 h; partner dose: 10 nM

Input line: // query cell viability of combination value for entry Nc1c(CC(=O)[O-])cccc1C(=O)c1ccccc1.O.[Na+] [Amfenac Sodium Monohydrate] + CC(C)C[C@H](NC(=O)[C@H](CCc1ccccc1)NC(=O)CN1CCOCC1)C(=O)N[C@@H](Cc1ccccc1)C(=O)N[C@@H](CC(C)C)C(=O)[C@@]1(C)CO1
Output line: 66.3

Input line: // query cell viability of combination value for entry Cc1ccc(NC(=O)c2ccc(CN3CCN(C)CC3)cc2)cc1Nc1nc(-c2cccnc2)cs1 [Masitinib (AB1010)] + CC(C)C[C@H](NC(=O)[C@H](CCc1ccccc1)NC(=O)CN1CCOCC1)C(=O)N[C@@H](Cc1ccccc1)C(=O)N[C@@H](CC(C)C)C(=O)[C@@]1(C)CO1
Output line: 69.6

Input line: // query cell viability of combination value for entry Clc1ccc(COC(Cn2ccnc2)c2ccc(Cl)cc2Cl)cc1.O=[N+]([O-])O (configuration not stated) [Econazole nitrate] + CC(C)C[C@H](NC(=O)[C@H](CCc1ccccc1)NC(=O)CN1CCOCC1)C(=O)N[C@@H](Cc1ccccc1)C(=O)N[C@@H](CC(C)C)C(=O)[C@@]1(C)CO1
Output line: 59.8

Input line: // query cell viability of combination value for entry O=C1C=CC=CC1=C1NC(=C2C=CC=CC2=O)N(c2ccc(C(=O)O)cc2)N1 [Deferasirox] + CC(C)C[C@H](NC(=O)[C@H](CCc1ccccc1)NC(=O)CN1CCOCC1)C(=O)N[C@@H](Cc1ccccc1)C(=O)N[C@@H](CC(C)C)C(=O)[C@@]1(C)CO1
Output line: 61.2

Input line: // query cell viability of combination value for entry Cc1cn(-c2cc(NC(=O)c3ccc(C)c(Nc4nccc(-c5cccnc5)n4)c3)cc(C(F)(F)F)c2)cn1 [Nilotinib(AMN-107)] + CC(C)C[C@H](NC(=O)[C@H](CCc1ccccc1)NC(=O)CN1CCOCC1)C(=O)N[C@@H](Cc1ccccc1)C(=O)N[C@@H](CC(C)C)C(=O)[C@@]1(C)CO1
Output line: 45.7

Input line: // query cell viability of combination value for entry CN(C)CC=CC(=O)Nc1cc2c(Nc3ccc(F)c(Cl)c3)ncnc2cc1OC1CCOC1 (configuration not stated) [Afatinib (BIBW2992)] + CC(C)C[C@H](NC(=O)[C@H](CCc1ccccc1)NC(=O)CN1CCOCC1)C(=O)N[C@@H](Cc1ccccc1)C(=O)N[C@@H](CC(C)C)C(=O)[C@@]1(C)CO1
Output line: 26.2

Input line: // query cell viability of combination value for entry Cc1c(Cl)cccc1Nc1ccccc1C(=O)O [Tolfenamic Acid] + CC(C)C[C@H](NC(=O)[C@H](CCc1ccccc1)NC(=O)CN1CCOCC1)C(=O)N[C@@H](Cc1ccccc1)C(=O)N[C@@H](CC(C)C)C(=O)[C@@]1(C)CO1
Output line: 69.7
